- PROCEDURE DETAILS: Quantitative highthroughput screen to assess conditional lethalithy of SEM cells grown in RPMI1640 with unreated serum (RPMI+s) (AID 1963883); further: nearly all actives have a fitted effect of over 35% in size
- CONDITION: SEM B-ALL cells, CellTiter-Glo viability, 48 h; series mostly up to 45.8 µM
Records with an inconclusive call do not appear. Activity calls are given as the source filed them. The call rests on the fitted dose curve; in most records, active means well fitted cell-killing curve with a large enough effect; inconclusive means small, poorly fitted or top-dose-only effect, or effect the other way; inactive means no such curve, though single readings can be large or run the other way.
Outcome codes: active, inactive

>  <LINE NOTATION>
CN(C)C/C=C/C(=O)Nc1ccc(C(=O)Nc2cccc(Nc3ncc(Cl)c(-c4c[nH]c5ccccc45)n3)c2)cc1

>  <CLASS>
active

$$$$
>  <LINE NOTATION>
O=C(CCCCCCNC(=O)c1cnc(N(c2ccccc2)c2ccccc2)nc1)NO

>  <CLASS>
active

$$$$
>  <LINE NOTATION>
COc1ccc2cc([S+]([O-])Cc3ncc(C)c(OC)c3C)nc2c1

>  <CLASS>
inactive

$$$$
>  <LINE NOTATION>
Cc1cc(Nc2ncnc3ccc(-c4ccc(CNCCS(C)(=O)=O)o4)cc23)ccc1Oc1ccn2ncnc2c1

>  <CLASS>
active

$$$$
>  <LINE NOTATION>
Cc1ccc(NC(=O)C2(c3ccc4c(c3)OC(F)(F)O4)CC2)nc1-c1cccc(C(=O)O)c1

>  <CLASS>
active

$$$$
>  <LINE NOTATION>
NC(=O)c1noc([C@H](CCCC2CCCCC2)CC(=O)NO)n1

>  <CLASS>
active

$$$$
>  <LINE NOTATION>
CCN(CC)CCOc1ccc(Nc2ncc3cc(-c4c(Cl)cccc4Cl)c(=O)n(C)c3n2)cc1

>  <CLASS>
active

$$$$
>  <LINE NOTATION>
Cc1onc(-c2ccccc2Cl)c1C(=O)N[C@@H]1C(=O)N2[C@@H]1SC(C)(C)[C@@H]2C(=O)O

>  <CLASS>
inactive

$$$$
>  <LINE NOTATION>
CCCc1cc(C(N)=S)ccn1

>  <CLASS>
inactive

$$$$
